Reported %Inh is given for each of the following molecules.
System: TRKA
Construct: gene NTRK1
Conditions: concentration: 1 μM,replicates: in singlicate; n = 1;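 further: KINOMEscan kinase panel screen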

{"Molecule": "CC(=O)c1c(-c2ccncc2)[nH]c(-c2ccncc2)c1C", "%Inh (%)": 0}
{"Molecule": "C[C@@H](Oc1cc(-n2cnc3cc(-c4ccncc4)ccc32)sc1C(N)=O)c1ccccc1Cl", "%Inh (%)": 66}
{"Molecule": "CC(=O)Nc1nc2cnc(Nc3cc(NC(=O)c4cccc(CC(C)(C)C#N)c4)ccc3C)nc2s1", "%Inh (%)": 0}
{"Molecule": "COc1cc2nccc(Nc3ccc(Oc4ccccc4)cc3)c2cc1OC.Cl", "%Inh (%)": 11}
{"Molecule": "Cl.Cl.NC[C@H](CC1CCCCC1)NC(=O)c1ccc(-c2ccnc3[nH]ccc23)s1", "%Inh (%)": 77}
{"Molecule": "CCOC(=O)N1CCC(n2cnc(-c3ccc(F)cc3)c2-c2ccnc(N)n2)CC1", "%Inh (%)": 42}
{"Molecule": "Cc1cccc2c(-c3ccncc3)c(-c3ccc(F)cc3)nn12.Cl", "%Inh (%)": 37}
{"Molecule": "COc1cccc(OC)c1C(=O)Nc1cccc(-c2nn3ccccc3c2-c2ccnc(Nc3cccc(F)c3)n2)c1", "%Inh (%)": 0}
{"Molecule": "OCCn1cc(-c2cnc3nnn(Cc4ccc5ncccc5c4)c3n2)cn1", "%Inh (%)": 0}
{"Molecule": "C[C@@H](Oc1cc(-n2cnc3cc(-c4cnn(C)c4)ccc32)sc1C(N)=O)c1ccccc1Cl", "%Inh (%)": 100}
{"Molecule": "C[C@@H]1CCN(C(=O)N2CCCC2)C[C@@H]1N(C)c1ncnc2[nH]ccc12", "%Inh (%)": 85}
{"Molecule": "COc1cccc(C2=C(Nc3cccc(Cl)c3)C(=O)NC2=O)c1", "%Inh (%)": 0}
{"Molecule": "Cc1n[nH]c2cc(Nc3ccnc(Nc4cccc(CN5CCOCC5)c4)n3)ccc12", "%Inh (%)": 100}
{"Molecule": "CS(=O)c1ccc(-c2coc3ccc(-c4n[nH]c(=O)o4)cc23)cc1 (stereo not drawn)", "%Inh (%)": 26}
{"Molecule": "O=C(Nc1ccc(Oc2ccc3nc(NC(=O)C4CC4)cn3n2)c(F)c1)c1cccn(-c2ccccc2)c1=O", "%Inh (%)": 87}
{"Molecule": "Cl.Nc1n[nH]c2cc(-c3ccccn3)ccc12", "%Inh (%)": 23}
{"Molecule": "CCn1c(-c2nonc2N)nc2cncc(Br)c21", "%Inh (%)": 56}
{"Molecule": "N#Cc1cccc(C(=O)NC2CCN(c3ccnc(Nc4ccc(F)cc4)n3)C2)c1 (stereo not drawn)", "%Inh (%)": 0}

====

Tested on: LZK
Construct: gene MAP3K13
Settings: concentration: 1 μM,replicates: in singlicate; n = 1

{"Compound": "Cn1ccc2ncnc(Oc3ccc(NC(=O)Nc4cncc(C(F)(F)F)c4)c(Cl)c3)c21", "Measured Target": "LZK", "%Inh [%]": 0}
{"Compound": "COC(=O)Nc1nc2cc(Oc3ccc(NC(=O)Nc4cc(C(F)(F)F)ccc4Cl)cc3)ccc2[nH]1.Cl [GW697465]", "Measured Target": "LZK", "%Inh [%]": 44}
{"Compound": "C[C@@H](Oc1cc(-n2cnc3cc(-c4cnn(C)c4)ccc32)sc1C(N)=O)c1ccccc1Cl [GSK580432]", "Measured Target": "LZK", "%Inh [%]": 0}
{"Compound": "NC(=O)Nc1sc(-c2ccc(F)cc2)cc1C(N)=O [GW789449]", "Measured Target": "LZK", "%Inh [%]": 0}
{"Compound": "CS(=O)(=O)c1cccc(CNc2nc(Nc3ccc4c(c3)[C@@H]3C[C@@H]4CNC3=O)ncc2C(F)(F)F)c1", "Measured Target": "LZK", "%Inh [%]": 0}
{"Compound": "Cc1nnc(-c2ccc3occ(-c4ccc(S(C)=O)cc4)c3n2)o1 (stereo not drawn)", "Measured Target": "LZK", "%Inh [%]": 0}
{"Compound": "Cn1ccc2ncnc(Oc3ccc(NC(=O)Nc4cnn(C(C)(C)C)c4)c(Cl)c3)c21", "Measured Target": "LZK", "%Inh [%]": 0}
{"Compound": "COc1cc2c(Nc3ccc(NC(=O)c4ccccc4)cc3)ncnc2cc1OCCCN1CCOCC1 [GSK301329]", "Measured Target": "LZK", "%Inh [%]": 55}
{"Compound": "OCCn1cc(-c2cnc3nnn(Cc4ccc5ncccc5c4)c3n2)cn1", "Measured Target": "LZK", "%Inh [%]": 0}
